Target: Glc(a1-6)Glc(a1-6)Glc
Assay: glycan array binding signal (z-score within array); higher = stronger binding
Conditions: glycan notation: IUPAC condensed, linker removed
This excerpt belongs to a sample that is enriched for the strongest signals.
Recorded metric: glycan array binding signal (z-score)

# Binder, Recorded metric, Meas value
data = [
    ("ASAL (Allium sativum), P83886 (protein) MGRTTSSPKAMMRIATVAAILTILASTCMARNVLTNGEGLYAGQSLDVEQYKFIMQDDCNLVLYEYSTPIWASNTGVTGKNGCRAVMQRDGNFVVYDVNGRPVWASNSVRGNGNYILVLQKDRNVVIYGSDIWSTGTYRRSVGGAVVMAMNGTVDGGSVIGPVVVNQNVTAAIRKVGTGAA", "glycan array binding signal (z-score)", -0.234),
]

Data origin: the supplement of paper PMC8728848
